Where do the numbers come from? From paper PMC6315097.

experiment: Pharmacokinetic profiles in male C57BL/6 mice; type: in vivo; settings: male, C57BL/6, mouse, plasma, po, 3 mg/kg, AUC0-24hr, mice
experimental_readout: AUC(0-t) (ng·h/mL)

{"columns": ["item_smiles", "observed"],
 "data": [
  ["CCc1ccc(Cc2cc([C@@H]3O[C@H](CO)[C@@H](O)[C@H](O)[C@H]3O)cc3c2CCC3)cc1", 5460]
]}

* * *

test: Pharmacokinetic profiles in male C57BL/6 mice; type: in vivo; conditions: male, C57BL/6, mouse, plasma, po, 0.3 mg/kg, AUC0-24hr, mice

{"columns": ["molecule", "units_label", "AUC(0-t)"],
 "data": [
  ["CCc1ccc(Cc2cc([C@@H]3O[C@H](CO)[C@@H](O)[C@H](O)[C@H]3O)cc3c2CCC3)cc1 [HM41322]", "ng·h/mL", 473]
]}
